Tested Target: T1, cynomolgus monkey IL-4Rα (cynomolgus monkey, UniProt P24394 26-231 (human entry), limits assumed)
T1 construct: also called Cyno IL-4Rα; cyIL-4Rα
T1 chain: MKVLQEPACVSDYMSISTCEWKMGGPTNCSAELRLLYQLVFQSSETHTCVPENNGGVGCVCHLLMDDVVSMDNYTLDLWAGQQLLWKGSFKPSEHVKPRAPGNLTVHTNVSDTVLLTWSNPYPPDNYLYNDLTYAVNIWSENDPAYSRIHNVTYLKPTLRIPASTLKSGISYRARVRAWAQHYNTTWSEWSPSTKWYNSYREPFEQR
Assay Overview: SPR, Carterra LSA;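 also: antibodies captured on an anti-human Fc sensor chip, antigen injected at several concentrations, association and dissociation rates fitted with a 1:1 Langmuir model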
Attribute: KD Relative to Dupilumab
Kindly provide the number alone.

Here is how some binders turned out for KD Relative to Dupilumab.
1. Construct 40 (mAb476) (antibody, IgG4, V domains shown, VH/VL only) VH: EVQLVESGGGLEQPGGSLRLSCAGSGFTFRDFAMTWVRQAPGKGLEWVSSVSGDGGNTYYADSVKGRFTISRDNSKNTLYLQMNSLRAEDTAVYYCAKDRLSKTIRPRYYGLDVWGQGTTVTVSS VL: DIVMTQSPLSLPVTPGEPASISCRSSQSVLYSIGYNYVDWYLQKSGQSPQLLIYLGNKRASGVPDRFSGSGSGTDFTLKISRVEAEDVGFYYCMQAYQSPYVFGQGTKLEIK
0.22
2. Construct 43 (mAb482) (antibody, IgG4, V domains shown, VH/VL only) VH: EVQLVESGGGLEQPGGSLRLSCAGSGFTFRDFAMTWVRQAPGKGLEWVSSISGGGGNTYYADSVKGRFTISRDNSKNTLYLQMNSLRAEDTAVYYCAKDRLSIAVRPRYYGLDVWGQGTTVTVSS VL: DIVMTQSPLSLPVTPGEPASISCTSSQSLLYSIGYNYVDWYLQKSGQSPQLLIYLGSKRASGVPDRFSGSGSGTDFTLKISRVEAEDVGFYYCMQSLTSPYTFGQGTKLEIK
0.24

We now examine a further binder.
Query block: Please look up its KD Relative to Dupilumab: Construct 29 (mAb437) (antibody, IgG4, V domains shown, VH/VL only) VH: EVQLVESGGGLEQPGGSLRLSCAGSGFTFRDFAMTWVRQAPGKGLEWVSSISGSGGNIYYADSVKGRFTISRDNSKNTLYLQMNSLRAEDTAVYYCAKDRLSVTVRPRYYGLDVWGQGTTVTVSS VL: DIVMTQSPLSLPVTPGEPASISCTSSQSLLYSIGYNYVDWYLQKSGQSPQLLIYLGNKRASGVPDRFSGSGSGTDFTLKISRVEAEDVGFYYCMQSLTSPYTFGQGTKLEIK
Result block: 0.02
